# growth listing for each entry below
Tested on: HS 578T breast
Assay: NCI-60 one-dose screen, 48 h (100 = growth as untreated, 0 = no growth, -100 = all killed)
Conditions: 10 µM unless noted
The panel holds about 83,000 compounds, 20% with a hit somewhere; the sample as a whole holds those more often.

{"columns": ["Compound", "Unit tag", "growth"],
 "data": [
  ["O=C1/C(=C/c2ccccc2)SC(=Nc2ccccc2)N1Nc1ccccc1", "%", 35.1],
  ["CCS(=O)(=O)Nc1cccc(Nc2c3cccc(C)c3nc3c(C)cccc23)c1OC", "%", 61.2],
  ["COc1ccc(-c2nc3c(c(-c4ccc(Cl)cc4)nn3-c3ccccc3)c(-c3ccc(O)cc3)c2C#N)cc1", "%", 24.6],
  ["O=C1C=CN2C(=O)CC=CC2[C@@H]1O (stereo partly specified)", "%", 121],
  ["c1cc2c(cc1-c1cnc3nonc3n1)OCO2", "%", 99.1],
  ["CCOC(=O)C1OC2(CCCC2)OC1C(=O)OCC (stereo unspecified)", "%", 105],
  ["O=C(CCl)Nc1ccc2c(c1)C(=O)c1ccccc1C2=O", "%", 51.8],
  ["O=C(CC(=O)c1cccc(Cl)c1)c1cccc(Cl)c1", "%", 73.6],
  ["COc1ccc(-c2nc3ccccc3n3cccc23)cc1", "%", 111],
  ["CS(=O)(=O)c1ccc(Cl)c([N+](=O)[O-])c1", "%", 73.3],
  ["COC(=O)c1ccc2c(c1)nc(-c1ccc(Cl)cc1)n2-c1cc(C(C)(C)C)[nH]n1", "%", 53.3]
]}
